target: kinase panel containing either 359 or 386 distinct kinases; test: Selectivity score S10 from competition binding against a panel of kinases; settings: compounds at 10 μM; panel of 386 distinct kinases
measured-attribute: Kinase specificty: S(10)-386 panel

Some compounds with known Kinase specificty: S(10)-386 panel results, for comparison:
{"line-notation": "CC1(c2cc(NC(=O)Cc3ccc(-c4cnc(N)c(C(F)(F)F)c4)cc3)no2)COC1.CS(=O)(=O)O", "system-under-test": "kinase panel containing either 359 or 386 distinct kinases", "result": "B (0.1<B≦0.2 nM)"}
{"line-notation": "CC1(c2cc(NC(=O)Cc3ccc(-c4cnc(N)c(F)c4)cc3)no2)CC1.CS(=O)(=O)O", "system-under-test": "kinase panel containing either 359 or 386 distinct kinases", "result": "B (0.1<B≦0.2 nM)"}
{"line-notation": "CC1(c2cc(NC(=O)Nc3ccc(-c4ccc(N)nc4)cn3)no2)CC1.CS(=O)(=O)O", "system-under-test": "kinase panel containing either 359 or 386 distinct kinases", "result": "A (A≦0.1)"}
{"line-notation": "CC(C)(C)c1cc(NC(=O)Cc2ccc(-c3cnc(N)cc3C(F)(F)F)cc2)no1", "system-under-test": "kinase panel containing either 359 or 386 distinct kinases", "result": "A (A≦0.1)"}
{"line-notation": "CS(=O)(=O)O.Nc1ccc(-c2ccc(CC(=O)Nc3cc(C4(C(F)(F)F)CC4)on3)cc2)c(F)n1", "system-under-test": "kinase panel containing either 359 or 386 distinct kinases", "result": "A (A≦0.1)"}
{"line-notation": "CC(C)(CF)c1cc(NC(=O)Nc2ccc(-c3ccc(N)nc3)cc2)on1", "system-under-test": "kinase panel containing either 359 or 386 distinct kinases", "result": "A (A≦0.1)"}
{"line-notation": "CS(=O)(=O)O.Nc1ncc(-c2ccc(CC(=O)Nc3cc(C4(C(F)(F)F)CC4)on3)cc2)cc1Cl", "system-under-test": "kinase panel containing either 359 or 386 distinct kinases", "result": "B (0.1<B≦0.2 nM)"}
{"line-notation": "COc1cc(-c2ccc(CC(=O)Nc3cc(C(C)(C)C)on3)cc2)cnc1N.CS(=O)(=O)O", "system-under-test": "kinase panel containing either 359 or 386 distinct kinases", "result": "B (0.1<B≦0.2 nM)"}

Measured Kinase specificty: S(10)-386 panel, CC1(c2cc(NC(=O)Cc3ccc(-c4ccc(N)nc4)cc3)no2)COC1.CS(=O)(=O)O : A (A≦0.1)

The compound identified as CC(C)(C)c1cc(NC(=O)Cc2ccc(-c3cnc4[nH]c(=O)oc4c3)cc2)no1 registered its Kinase specificty: S(10)-386 panel at B (0.1<B≦0.2 nM)

Summary for this compound, CC(C)(C)c1cc(NC(=O)Cc2ccc(-c3ccc(N)nc3)cc2F)no1 : Kinase specificty: S(10)-386 panel is B (0.1<B≦0.2 nM)

// sample CS(=O)(=O)O.Nc1ccc(-c2ccc(CC(=O)Nc3cc(C4CCC4)no3)cc2)cn1 , its Kinase specificty: S(10)-386 panel was A (A≦0.1)

Kinase specificty: S(10)-386 panel reading for CS(=O)(=O)O.Nc1ncc(-c2ccc(CC(=O)Nc3cc(C4(C(F)(F)F)CC4)on3)cc2)cc1F : B (0.1<B≦0.2 nM)
